- MEASUREMENT NOTES: Primary qHTS for delayed death inhibitors of the malarial parasite plastid, 96 hour incubation
- REPORTED CONDITIONS: P. falciparum luciferase reporter growth; series mostly up to 28.7 µM
- Source text: The goal of this screen is to discover new antimalarial compounds that act by inhibiting the development of the apicoplast in the malarial parasite Plasmodium falciparum. […] We have developed a cell-based assay that measures parasite growth based on the expression of an integrated copy of a firefly luciferase reporter. […] Growth inhibition is detected by a decrease in luciferase activity. […]
Screen size: about 320,000 compounds; about 22,000 (6.9%) were called active. Not shown: some 27% with an inconclusive outcome. This is one part of a sample in which actives are shown more often than they occur.
READOUT LABEL: outcome

{"columns": ["COMPOUND", "OBS VALUE"],
 "data": [
  ["Cc1ccc(-c2cc(C(=O)NN)n[nH]2)o1", "inactive"],
  ["CCC(C)C(NC(=O)C1CCC(=O)N1C(=O)OCc1ccccc1)C(=O)NC(C(=O)N1CCCC1C(N)=O)C(C)CC (stereo not drawn)", "inactive"],
  ["Cc1onc(-c2c(F)cccc2Cl)c1C(=O)N(C)CC(=O)Nc1cccc(F)c1", "inactive"]
]}
